# PROCEDURE_TEXT: P. aeruginosa biofilm formation inhibitors, primary screen, strain PAO1, LB-PBS medium, absorbance 600 nm (AID 1176); further: test concentration not given here
# RUN_PARAMETERS: P. aeruginosa PAO1 growth/biofilm, A600, 12 h; higher = more signal
MEASURED_ATTRIBUTE: z-score

* CC(C)(C)OC(=O)CC[C@]1(C(=O)N2CCOCC2)N=C(c2ccc(OCCCO)cc2)O[C@H]1c1ccccc1N=[N+]=[N-] | -0.0684
* CCCc1cc2c(n1Cc1cc(F)cc(F)c1)C(C)C1CN(C(=O)c3ccccc3)C(C)(C(=O)OC)C21 (centres undefined) | 0.992
* O=C1c2ccccc2[C@](Cc2ccccc2I)(C(=O)NCC(F)(F)F)[C@H](c2ccc(CO)cc2)N1Cc1ccccc1Cl | 0.723
* COc1ccc(CCNC(=O)[C@@H]2c3ccccc3C(=O)N(Cc3ccccc3Cl)[C@H]2c2ccc(CO)cc2)cc1 | 0.416
